molecular target: soluble FGFR2c receptor protein (human, UniProt P21802 148-377); assay: BLI Octet RED96, antibody on anti-hIgG Fc tip
Sequence (P21802 148-377): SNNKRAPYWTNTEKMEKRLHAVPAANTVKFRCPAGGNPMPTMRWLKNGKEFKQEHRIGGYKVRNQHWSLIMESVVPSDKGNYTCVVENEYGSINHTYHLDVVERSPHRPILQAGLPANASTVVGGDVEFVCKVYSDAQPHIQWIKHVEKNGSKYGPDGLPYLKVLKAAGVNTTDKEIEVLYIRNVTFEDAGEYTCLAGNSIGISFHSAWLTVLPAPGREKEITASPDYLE
Mark True only when Kd stays strictly below 9 nM. Values equal to the cut-off are False.

Kd strictly < 9 nM for this binder? Ab60 (antibody, human IgG2, kappa, V domains shown, format in the assays not spelled out) VH: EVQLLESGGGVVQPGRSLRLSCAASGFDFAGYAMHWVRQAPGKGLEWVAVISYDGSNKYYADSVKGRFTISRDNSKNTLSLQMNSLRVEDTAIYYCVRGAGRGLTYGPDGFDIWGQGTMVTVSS VL: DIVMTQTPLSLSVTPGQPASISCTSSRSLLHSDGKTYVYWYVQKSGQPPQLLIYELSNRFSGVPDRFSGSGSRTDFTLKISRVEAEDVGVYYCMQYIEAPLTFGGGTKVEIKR
True

Kd strictly < 9 nM for this binder? Ab19 (antibody, human IgG2, kappa, V domains shown, format in the assays not spelled out) VH: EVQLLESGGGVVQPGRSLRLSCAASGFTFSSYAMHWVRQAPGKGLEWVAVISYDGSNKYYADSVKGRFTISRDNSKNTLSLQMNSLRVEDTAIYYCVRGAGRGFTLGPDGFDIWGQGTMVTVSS VL: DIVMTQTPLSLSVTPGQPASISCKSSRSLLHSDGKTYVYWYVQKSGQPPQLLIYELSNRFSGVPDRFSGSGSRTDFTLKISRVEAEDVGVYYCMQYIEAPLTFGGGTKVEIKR
True

Kd strictly < 9 nM for this binder? Vk6 combined with the VH of Ab15 (antibody, V domains shown, captured on anti-human IgG Fc tips) VH: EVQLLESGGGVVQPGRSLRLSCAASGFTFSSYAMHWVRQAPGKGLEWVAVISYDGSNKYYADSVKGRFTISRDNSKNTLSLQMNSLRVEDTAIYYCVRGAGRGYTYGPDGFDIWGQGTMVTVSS VL: DIVMTQTPLSLSVTPGQPASISCKSSQSLLHSDGKTYLYWYLQKPGQPPQLLIYELSNRFSGVPDRFSGSGSGTDFTLKISRVEAEDVGVYYCMQYIEAPLTFGGGTKVEIK
False

Kd strictly < 9 nM for this binder? Vh1 combined with the VL of Ab15 (antibody, V domains shown, captured on anti-human IgG Fc tips) VH: EVQLVESGGGVVQPGRSLRLSCAASGFTFSSYAMHWVRQAPGKGLEWVAVISYDGSNKYYADSVKGRFTISRDNSKNTLYLQMNSLRAEDTAIYYCVRGAGRGYTYGPDGFDIWGQGTMVTVSS VL: DIVMTQTPLSLSVTPGQPASISCTSSRSLLHSDGKTYVYWYVQKSGQPPQLLIYELSNRFSGVPDRFSGSGSRTDFTLKISRVEAEDVGVYYCMQYIEAPLTFGGGTKVEIK
False

Kd strictly < 9 nM for this binder? Vk9 combined with the VH of Ab15 (antibody, V domains shown, captured on anti-human IgG Fc tips) VH: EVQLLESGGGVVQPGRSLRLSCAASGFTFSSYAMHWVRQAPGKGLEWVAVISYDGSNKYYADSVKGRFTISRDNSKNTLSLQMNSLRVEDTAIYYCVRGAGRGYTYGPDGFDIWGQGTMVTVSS VL: DIVMTQSPDSLAVSLGERATINCKSSQSLLHSDGKTYVYWYQQKPGQPPKLLIYELSNRFSGVPDRFSGSGSGTDFTLTISSLQAEDVAVYYCMQYIEAPLTFGGGTKVEIK
True

Kd strictly < 9 nM for this binder? Vk2 combined with the VH of Ab15 (antibody, V domains shown, captured on anti-human IgG Fc tips) VH: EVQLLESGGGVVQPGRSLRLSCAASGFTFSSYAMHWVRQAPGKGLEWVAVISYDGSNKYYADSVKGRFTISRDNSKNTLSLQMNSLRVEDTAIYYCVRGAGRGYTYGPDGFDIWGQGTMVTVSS VL: DIVMTQTPLSLSVTPGQPASISCTSSRSLLHSDGKTYVYWYLQKPGQPPQLLIYELSNRFSGVPDRFSGSGSRTDFTLKISRVEAEDVGVYYCMQYIEAPLTFGGGTKVEIK
False

Kd strictly < 9 nM for this binder? Ab90 (antibody, human IgG2, kappa, V domains shown, format in the assays not spelled out) VH: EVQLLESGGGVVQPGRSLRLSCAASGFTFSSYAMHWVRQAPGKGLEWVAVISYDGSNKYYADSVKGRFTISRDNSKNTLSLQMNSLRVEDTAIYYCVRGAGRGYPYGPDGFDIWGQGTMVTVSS VL: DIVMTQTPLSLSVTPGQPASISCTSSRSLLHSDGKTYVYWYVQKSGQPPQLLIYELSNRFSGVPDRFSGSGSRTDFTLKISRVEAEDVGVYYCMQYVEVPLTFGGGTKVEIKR
True

Kd strictly < 9 nM for this binder? Vk11 combined with the VH of Ab15 (antibody, V domains shown, captured on anti-human IgG Fc tips) VH: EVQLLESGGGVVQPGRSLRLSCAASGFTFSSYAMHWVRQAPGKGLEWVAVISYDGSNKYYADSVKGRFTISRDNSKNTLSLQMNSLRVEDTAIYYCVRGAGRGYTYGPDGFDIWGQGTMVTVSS VL: DIVMTQSPLSLPVTPGEPASISCTSSRSLLHSDGKTYVYWYLQKPGQSPQVLIYELSNRFSGVPDRFSGSGSGTDFTLKISRVEAEDVGVYYCMQYIEAPLTFGGGTKVEIK
False

Kd strictly < 9 nM for this binder? Vk1 combined with the VH of Ab15 (antibody, V domains shown, captured on anti-human IgG Fc tips) VH: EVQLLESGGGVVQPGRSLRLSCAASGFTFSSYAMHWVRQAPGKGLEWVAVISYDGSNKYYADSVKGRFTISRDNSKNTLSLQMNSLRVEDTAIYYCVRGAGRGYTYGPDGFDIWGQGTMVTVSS VL: DIVMTQTPLSLSVTPGQPASISCTSSRSLLHSDGKTYLYWYLQKPGQPPQLLIYELSNRFSGVPDRFSGSGSRTDFTLKISRVEAEDVGVYYCMQYIEAPLTFGGGTKVEIK
False
